The measurements presented in this section are drawn from the supplement of paper PMC11061612.

tested on: RCC-JW (Kidney Carcinoma); assay: combination Emax (second highest fraction inhibited in the dose matrix, 72 h); higher = more inhibition; extreme values may be limits of the assay
I'd be grateful if you could share measured combination Emax for these entries.
Enter a number only.

Exercise: Param item = N#Cc1cnc(Nc2cc(NC[C@H]3CNCCO3)c(C(F)(F)F)cn2)cn1 [SRA737] + O=c1[nH]cc(F)c(=O)[nH]1 [5-Fluorouracil] (first compound max 10 µM, 7x7, partner max 20 µM) ; retrieve measured combination Emax.
Solution: 0.21

Exercise: Param item = CC1(C)CCC(CN2CCN(c3ccc(C(=O)NS(=O)(=O)c4ccc(NCC5CCOCC5)c([N+](=O)[O-])c4)c(Oc4cnc5[nH]ccc5c4)c3)CC2)=C(c2ccc(Cl)cc2)C1 [Venetoclax] + COc1cc(Nc2ncc3c(n2)-c2ccc(Cl)cc2C(c2c(F)cccc2OC)=NC3)ccc1C(=O)O [Alisertib] (first compound max 1 µM, 7x7, partner max 10 µM) ; retrieve measured combination Emax.
Solution: 0.286

Exercise: Param item = Cc1cc2ncnn2cc1Nc1ncc2c(n1)n(C1CCOCC1)c(=O)n2C [AZD7648] + CN(C)CCCOc1ccc(-c2ccc3ncc4c(c3c2)n(C2CCOCC2)c(=O)n4C)cn1 [AZD0156] (first compound max 10 µM, 7x7, partner max 1 µM) ; retrieve measured combination Emax.
Solution: 0.339

====

test system: SiHa (Cervical Carcinoma); assay: Bliss excess, mean over the matrix (fraction); higher = more synergy
Rule: Bliss excess of 0.002 or more gives true; anything lower gives false.

Exercise: # check: Bliss excess of Cc1cc2ncnn2cc1Nc1ncc2c(n1)n(C1CCOCC1)c(=O)n2C [AZD7648] + C=CCn1c(=O)c2cnc(Nc3ccc(N4CCN(C)CC4)cc3)nc2n1-c1cccc(C(C)(C)O)n1 [AZD1775] (first compound max 10 µM, partner max 1 µM) is greater than or equal to 0.002
Solution: true

Exercise: # check: Bliss excess of CCc1c2c(nc3ccc(O)cc13)-c1cc3c(c(=O)n1C2)COC(=O)[C@]3(O)CC [SN-38] + O=C(c1cc(Cc2n[nH]c(=O)c3ccccc23)ccc1F)N1CCN(C(=O)C2CC2)CC1 [Olaparib] (first compound max 0.3 µM, 7x7, partner max 10 µM) is greater than or equal to 0.002
Solution: true

Exercise: # check: Bliss excess of Cc1c2c(nn1C)CSCc1cc(n(C)n1)CSc1cc(c3ccccc3c1)OCCCc1c(C(=O)O)n(C)c3c-2c(Cl)ccc13 [AZD5991] + CCN(CCO)CCCOc1ccc2c(Nc3cc(CC(=O)Nc4cccc(F)c4)[nH]n3)ncnc2c1 [AZD2811] (first compound max 1 µM, 7x7, partner max 1 µM) is greater than or equal to 0.002
Solution: false

Exercise: # check: Bliss excess of C=CCn1c(=O)c2cnc(Nc3ccc(N4CCN(C)CC4)cc3)nc2n1-c1cccc(C(C)(C)O)n1 [AZD1775] + C[C@@H]1COCCN1C2=NC(=NC(=C2)C3(CC3)[S@](=N)(=O)C)C4=C5C=CNC5=NC=C4 [AZD6738] (first compound max 1 µM, partner max 10 µM) is greater than or equal to 0.002
Solution: false

Exercise: # check: Bliss excess of CS(=O)(=O)CCNCc1ccc(-c2ccc3ncnc(Nc4ccc(OCc5cccc(F)c5)c(Cl)c4)c3c2)o1 [Lapatinib] + C[C@@H](Oc1cc(-c2cnn(C3CCNCC3)c2)cnc1N)c1c(Cl)ccc(F)c1Cl [Crizotinib] (first compound max 10 µM, 7x7, partner max 10 µM) is greater than or equal to 0.002
Solution: false

Exercise: # check: Bliss excess of CN(CCO)CC[C@H](CSc1ccccc1)Nc1ccc(S(=O)(=O)NC(=O)c2ccc(N3CCC([C@@H](O)c4ccccc4-c4ccc(Cl)cc4)CC3)cc2)cc1S(=O)(=O)C(F)(F)F [AZD4320] + C[C@@H](Nc1cc(F)cc(F)c1)c1cc(C(=O)N(C)C)cc2c(=O)cc(N3CCOCC3)oc12 [AZD8186] (first compound max 1 µM, 7x7, partner max 3 µM) is greater than or equal to 0.002
Solution: false

====

test system: NCI-H3118 (Head and Neck Carcinoma); assay: Bliss excess, mean over the matrix (fraction); higher = more synergy
Group membership follows Bliss excess per the scheme low range = under -0.04, mid range = from -0.04 up to 0.004, high range = 0.004 and over

Exercise: Sort CCN(CCO)CCCOc1ccc2c(Nc3cc(CC(=O)Nc4cccc(F)c4)[nH]n3)ncnc2c1 [AZD2811] + C[C@@H]1COCCN1C2=NC(=NC(=C2)C3(CC3)[S@](=N)(=O)C)C4=C5C=CNC5=NC=C4 [AZD6738] (first compound max 1 µM, 7x7, partner max 10 µM) into one of the categories.
Solution: low range

Exercise: Sort CC1(C)CCC(CN2CCN(c3ccc(C(=O)NS(=O)(=O)c4ccc(NCC5CCOCC5)c([N+](=O)[O-])c4)c(Oc4cnc5[nH]ccc5c4)c3)CC2)=C(c2ccc(Cl)cc2)C1 [Venetoclax] + CS(=O)(=O)CCNCc1ccc(-c2ccc3ncnc(Nc4ccc(OCc5cccc(F)c5)c(Cl)c4)c3c2)o1 [Lapatinib] (first compound max 1 µM, 7x7, partner max 10 µM) into one of the categories.
Solution: mid range

Exercise: Sort CS(=O)(=O)CCNCc1ccc(-c2ccc3ncnc(Nc4ccc(OCc5cccc(F)c5)c(Cl)c4)c3c2)o1 [Lapatinib] + NC1(c2ccc(-c3nc4ccn5c(=O)[nH]nc5c4cc3-c3ccccc3)cc2)CCC1 [MK-2206] (first compound max 10 µM, 7x7, partner max 10 µM) into one of the categories.
Solution: high range

Exercise: Sort Cc1nc(Nc2ncc(C(=O)Nc3c(C)cccc3Cl)s2)cc(N2CCN(CCO)CC2)n1 [Dasatinib] + CC(=O)Nc1cccc(-n2c(=O)n(C3CC3)c(=O)c3c(Nc4ccc(I)cc4F)n(C)c(=O)c(C)c32)c1 [Trametinib] (first compound max 2 µM, 7x7, partner max 1 µM) into one of the categories.
Solution: low range

Exercise: Sort CN(CCO)CC[C@H](CSc1ccccc1)Nc1ccc(S(=O)(=O)NC(=O)c2ccc(N3CCC([C@@H](O)c4ccccc4-c4ccc(Cl)cc4)CC3)cc2)cc1S(=O)(=O)C(F)(F)F [AZD4320] + CN(C)CCCOc1ccc(-c2ccc3ncc4c(c3c2)n(C2CCOCC2)c(=O)n4C)cn1 [AZD0156] (first compound max 1 µM, 7x7, partner max 1 µM) into one of the categories.
Solution: low range

Exercise: Sort CN(CCO)CC[C@H](CSc1ccccc1)Nc1ccc(S(=O)(=O)NC(=O)c2ccc(N3CCC([C@@H](O)c4ccccc4-c4ccc(Cl)cc4)CC3)cc2)cc1S(=O)(=O)C(F)(F)F [AZD4320] + Cn1cnc2c(F)c(Nc3ccc(Br)cc3Cl)c(C(=O)NOCCO)cc21 [Selumetinib] (first compound max 1 µM, 7x7, partner max 3 µM) into one of the categories.
Solution: high range

Exercise: Sort Cn1cnc2c(F)c(Nc3ccc(Br)cc3Cl)c(C(=O)NOCCO)cc21 [Selumetinib] + C[C@@H]1COCCN1C2=NC(=NC(=C2)C3(CC3)[S@](=N)(=O)C)C4=C5C=CNC5=NC=C4 [AZD6738] (first compound max 10 µM, 7x7, partner max 10 µM) into one of the categories.
Solution: high range

Exercise: Sort Cc1c2c(nn1C)CSCc1cc(n(C)n1)CSc1cc(c3ccccc3c1)OCCCc1c(C(=O)O)n(C)c3c-2c(Cl)ccc13 [AZD5991] + C=CCn1c(=O)c2cnc(Nc3ccc(N4CCN(C)CC4)cc3)nc2n1-c1cccc(C(C)(C)O)n1 [AZD1775] (first compound max 1 µM, partner max 1 µM) into one of the categories.
Solution: mid range

Exercise: Sort COc1cc2ncnc(Nc3ccc(F)c(Cl)c3)c2cc1OCCCN1CCOCC1 [Gefitinib] + CC(C)n1c(=O)n(C)c2cnc3cc(F)c(-c4ccc(OCCCN5CCCCC5)nc4)cc3c21 [AZD1390] (first compound max 10 µM, 7x7, partner max 0.3 µM) into one of the categories.
Solution: mid range

Exercise: Sort CC1(C)CCC(CN2CCN(c3ccc(C(=O)NS(=O)(=O)c4ccc(NCC5CCOCC5)c([N+](=O)[O-])c4)c(Oc4cnc5[nH]ccc5c4)c3)CC2)=C(c2ccc(Cl)cc2)C1 [Venetoclax] + Cn1cnc2c(F)c(Nc3ccc(Br)cc3Cl)c(C(=O)NOCCO)cc21 [Selumetinib] (first compound max 1 µM, 7x7, partner max 3 µM) into one of the categories.
Solution: mid range

Exercise: Sort COc1nnc2ccc(N3CCC(c4ccc(OCCN5CCN(C)C(=O)[C@H]5C)cc4)CC3)nn12 [AZD5153] + CCN(CCO)CCCOc1ccc2c(Nc3cc(CC(=O)Nc4cccc(F)c4)[nH]n3)ncnc2c1 [AZD2811] (first compound max 1 µM, 7x7, partner max 1 µM) into one of the categories.
Solution: low range

====

test system: IA-LM (Non-Small Cell Lung Carcinoma); assay: combination Emax (second highest fraction inhibited in the dose matrix, 72 h); higher = more inhibition; extreme values may be limits of the assay
measured-property: combination Emax

Exercise: Param item = CC(=O)Nc1cccc(-n2c(=O)n(C3CC3)c(=O)c3c(Nc4ccc(I)cc4F)n(C)c(=O)c(C)c32)c1 [Trametinib] + Cc1nc(-c2cn3c(n2)-c2ccc(-c4cnn(C(C)(C)C(N)=O)c4)cc2OCC3)n(C(C)C)n1 [Taselisib] (first compound max 1 µM, 7x7, partner max 10 µM) ; retrieve measured combination Emax.
Solution: 0.486

Exercise: Param item = Cn1cnc2c(F)c(Nc3ccc(Br)cc3Cl)c(C(=O)NOCCO)cc21 [Selumetinib] + C=CCn1c(=O)c2cnc(Nc3ccc(N4CCN(C)CC4)cc3)nc2n1-c1cccc(C(C)(C)O)n1 [AZD1775] (first compound max 10 µM, partner max 1 µM) ; retrieve measured combination Emax.
Solution: 0.296

Exercise: Param item = Cc1c2c(nn1C)CSCc1cc(n(C)n1)CSc1cc(c3ccccc3c1)OCCCc1c(C(=O)O)n(C)c3c-2c(Cl)ccc13 [AZD5991] + CS(=O)(=O)CCNCc1ccc(-c2ccc3ncnc(Nc4ccc(OCc5cccc(F)c5)c(Cl)c4)c3c2)o1 [Lapatinib] (first compound max 1 µM, 7x7, partner max 10 µM) ; retrieve measured combination Emax.
Solution: 0.297
